Molecular target: β-lactamase, P. Mirab C889
Experiment: β-Lactamase inhibition, automated hydroxyamine assay
Format: biochemical
Conditions: maximum concentration 20 μg/ml
Overview of reported concentration of compound for 50% inhibition of enzyme across a group of compounds:
Number only, in µg/mL; omit the unit.

Below, 2 compounds whose answers are already recorded.
compound	assaySystem	dataValue
COC(=O)C=CCC1C(=O)N2C(C(=O)OCc3ccccc3)=C([S+]([O-])c3ccccc3)CC12 (stereo not drawn) [Compound 69]	β-lactamase, P. Mirab C889	2.4
COC(=O)C=CCC1C(=O)N2C1CC(Cl)([S+]([O-])c1ccccc1)C2C(=O)OCc1ccccc1 (stereo not drawn)	β-lactamase, P. Mirab C889	0.6

Summary for this compound, COC(=O)C=CCC1C(=O)N2C(C(=O)OCc3ccccc3)=C([S+]([O-])c3ccccc3)CC12 (stereo not drawn) [Compound 71] : concentration of compound for 50% inhibition of enzyme is 2.0

Summary for this compound, CC[S+]([O-])C1=C(C(=O)OCC(=O)c2ccc(Br)cc2)N2C(=O)C(CC=CC(=O)OC)C2C1 (single isomer, unassigned) : concentration of compound for 50% inhibition of enzyme is 1.2

Summary for this compound, CC[S+]([O-])C1=C(C(=O)OCc2ccccc2)N2C(=O)CC2C1 (stereo not drawn) : concentration of compound for 50% inhibition of enzyme is 4

Summary for this compound, CC(=O)NCC[S+]([O-])C1=C(C(=O)OCc2ccccc2)N2C(=O)CC2C1 (stereo not drawn) : concentration of compound for 50% inhibition of enzyme is 3.3

---

Overview of reported IC50 across a group of compounds:
Target: β-lactamase, E. Coli JT4 (Escherichia coli)
Construct: preparation not described
Sequence (P62593 24-286 limits assumed): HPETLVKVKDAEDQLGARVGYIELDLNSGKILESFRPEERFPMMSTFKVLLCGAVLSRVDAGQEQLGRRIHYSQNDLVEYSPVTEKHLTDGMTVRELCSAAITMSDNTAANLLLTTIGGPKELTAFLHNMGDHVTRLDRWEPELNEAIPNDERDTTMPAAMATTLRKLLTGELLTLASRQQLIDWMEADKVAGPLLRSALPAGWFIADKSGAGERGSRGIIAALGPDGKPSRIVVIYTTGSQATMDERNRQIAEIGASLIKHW
Assay: β-Lactamase inhibition, automated hydroxyamine assay
Type: biochemical
Settings: E. Coli JT4 β-lactamase; hydroxyamine assay; maximum concentration 20 μg/ml; read-out: concentration of compound for 50% inhibition of enzyme (converted)

Below, 3 compounds whose answers are already recorded.
compound	IC50
CC[S+]([O-])C1=C(C(=O)OCc2ccccc2)N2C(=O)[C@H](C(C)(C)O)[C@H]2C1 (relative stereo)	21.2 µM
COC(=O)C=CCC1C(=O)N2C1CC(Cl)([S+]([O-])c1ccccc1)C2C(=O)OCc1ccccc1 (stereo not shown)	15.9 µM
COC(=O)C=CCC1C(=O)N2C(C(=O)OCc3ccccc3)=C([S+]([O-])c3ccccc3)CC12 (stereo not shown) [Compound 69]	26.2 µM

Field: next compound
Summary for this compound, COC(=O)C=CCC1C(=O)N2C(C(=O)OCc3ccccc3)=C([S+]([O-])c3ccccc3)CC12 (stereo not shown) [Compound 71] : IC50 is 18.3 µM

---

Molecular target: β-lactamase, E. Coli JT4 (Escherichia coli)
Construct: preparation not described
Assay: β-Lactamase inhibition, automated chromagenic substrate assay
Type: biochemical
Details: read-out: concentration of compound for 50% inhibition of enzyme (converted)
testReadout: IC50 (µM)
Number only, in µM; omit the unit.

Below, 4 compounds whose answers are already recorded.
compound	measureUnit	dataValue
CC(=O)Nc1ccc([S+]([O-])C2=C(C(=O)OCc3ccccc3)N3C(=O)CC3C2)cc1 (centres unmarked) [Compound 67]	µM	1.84
CC[S+]([O-])C1=C(C(=O)OCc2ccccc2)N2C(=O)CC2C1 (centres unmarked) [Compound 57]	µM	28.2
CC(O)[C@@H]1C(=O)N2C(C(=O)OCc3ccccc3)=C([S+]([O-])c3ccccc3)C[C@H]12 (relative stereo) [Compound 82]	µM	31.6
CC[S+]([O-])C1=C(C(=O)OCc2ccccc2)N2C(=O)C(Cc3ccccc3)C2C1 (centres unmarked) [Compound 80]	µM	20.8

I looked up CC(=O)Nc1ccc([S+]([O-])C2=C(C(=O)OCc3ccccc3)N3C(=O)CC3C2)cc1 (centres unmarked) [Compound 65] and its IC50 for β-lactamase, E. Coli JT4 (Escherichia coli) was 0.825
